# Tested on: MCF10A
# test.method.notes: one-nucleolus phenotype percent effect (relative to siNT 0% and siNOL11 100%); higher = more cells with one nucleolus (ribosome biogenesis inhibition)
# condition.notes: 20 nM; 72 h
I'd be grateful if you could share measured one-nucleolus phenotype percent effect for these entries.
One number for each entry, in %.

sequence	one-nucleolus phenotype percent effect, %
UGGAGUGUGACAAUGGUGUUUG [hsa-miR-122-5p]	-11.4
UGUCUCUCGCCCUUGGCCUUAG [hsa-miR-6895-3p]	34.7
CUUUGCUUCCUGCUCCCCUAG [hsa-miR-6885-3p]	-5.84
CAAUUCUCAAAGGAGCCUCCC [hsa-miR-5571-5p]	34
CUCCGGGACGGCUGGGC [hsa-miR-4497]	-8.42
CGGGGGCGGGGCCGAAGCGCG [hsa-miR-1237-5p]	-22
UCUGUAGCCUGGGAGCAAUGGGGU [hsa-miR-3137]	24
AAGUGCCGCCAUCUUUUGAGUGU [hsa-miR-371a-3p]	-8.12
GGAGGGGUCCCGCACUGGGAGG [hsa-miR-1914-3p]	-23.7
GGUGGCCCGGCCGUGCCUGAGG [hsa-miR-663b]	-23.6

Batch request: one-nucleolus phenotype percent effect per item, same order as input.
1. GCAGCAGAGAAUAGGACUACGUC [hsa-miR-922]
2. UGCAAAAGUAAUUGCAGUUUUUG [hsa-miR-548g-5p]
3. CUCCUCUGUUUUCUUUCCUAG [hsa-miR-6780a-3p]
4. CAGGGCUCAGGGAUUGGAUGGAGG [hsa-miR-5088-5p]

[reply]
1: -15; 2: -17; 3: 25.3; 4: -17.9

Batch request: one-nucleolus phenotype percent effect per item, same order as input.
1. CCUAGUAGGUGUCCAGUAAGUGU [hsa-miR-325]
2. UGUGACUUUAAGGGAAAUGGCG [hsa-miR-3164]
3. UAUGGAGUGGACUUUCAGCUGGC [hsa-miR-6514-5p]
4. AAAAGUACUUGCGGAUUU [hsa-miR-548av-5p]
5. GAAUGUUGCUCGGUGAACCCCU [hsa-miR-409-3p]

[reply]
1. -12.1
2. 19.5
3. -0.808
4. -23.4
5. 9.98
